Numbers sourced from patent US20220273710A1.

- measurement_target: T1, Recombinant purified CD79b (R&D systems) (human, UniProt P40259 29-159)
- T1 construct: Bought protein
- T1 sequence: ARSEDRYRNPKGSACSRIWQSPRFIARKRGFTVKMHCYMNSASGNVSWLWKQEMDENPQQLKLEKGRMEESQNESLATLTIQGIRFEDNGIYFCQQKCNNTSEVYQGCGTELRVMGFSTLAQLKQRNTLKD
- assay_notes: SPR, Biacore 8K, antibody immobilised on CM5 chip, CD79b as analyte, 25° C, 1:1 Langmuir fit
endpoint_name: pKd
Please note pKd is a logarithmic value: minus log10 of concentration in mol/L. Answer with that number alone.

Request: So what does the record say about pKd for 2E8 (antibody, mouse IgG2a, V domains shown, also called 2E8 antibody; clone 2E8) VH: AVQLVESGGGLVQPKESLKISCAASGFTFSNAAMYWVRQAPGKGLEWVARIRTKPNNYATNYADSVKGRFTISRDDSKSMVYLQMDNLKTEDTAMYYCTYYDGSSYAMDAWGQGTSVTVSS VL: DVVLTQTPVSLSVTLGDQASISCRSSQSLEYSDGYTYLDWYLQKPGQSPQLLIYEVSNRFSGVPDRFIGSGSGTDFTLKISRVEPEDLGVYYCFQATHDPYTFGAGTKLEIK ?
Result: 8.15
